experiment: Displacement of [3H]-NTI from delta opioid receptor in guinea pig forebrain homogenates; assay type: tissue-based, Cavia porcellus, Brain
This listing pairs compounds with measured Ki.
# value in µM; strip the unit string

Study these solved cases before continuing.
Compound: Oc1ccc2c3c1O[C@H]1[C@]4(CC[C@@]5(O)[C@@H](C2)N(CC2CC2)CC[C@]315)O[C@@H]1N2[C@H]4O[C@]3(CC[C@@]4(O)[C@H]5Cc6ccc(O)c7c6[C@@]4(CCN5CC4CC4)[C@H]3O7)[C@@H]2O[C@]12CC[C@@]1(O)[C@H]3Cc4ccc(O)c5c4[C@@]1(CCN3CC1CC1)[C@H]2O5
Value measured: 0.122

Compound: CN1CC[C@]23c4c5ccc(O)c4O[C@H]2[C@]2(CC[C@@]3(O)[C@H]1C5)O[C@@H]1N3[C@H]2O[C@]2(CC[C@@]4(O)[C@H]5Cc6ccc(O)c7c6[C@@]4(CCN5CC4CC4)[C@H]2O7)[C@@H]3O[C@]12CC[C@@]1(O)[C@H]3Cc4ccc(O)c5c4[C@@]1(CCN3C)[C@H]2O5
Value measured: 0.0235

Compound: CN1CC[C@]23c4c5ccc(O)c4O[C@H]2[C@]2(CC[C@@]3(O)[C@H]1C5)O[C@@H]1N3[C@H]2O[C@]2(CC[C@@]4(O)[C@H]5Cc6ccc(O)c7c6[C@@]4(CCN5C)[C@H]2O7)[C@@H]3O[C@]12CC[C@@]1(O)[C@H]3Cc4ccc(O)c5c4[C@@]1(CCN3C)[C@H]2O5
Value measured: 0.0386

Compound: CN1CC[C@]23c4c5ccc(O)c4O[C@H]2[C@]2(CC[C@@]3(O)[C@H]1C5)O[C@@H]1N3[C@H]2O[C@]2(CC[C@@]4(O)[C@H]5Cc6ccc(O)c7c6[C@@]4(CCN5CC4CC4)[C@H]2O7)[C@@H]3O[C@]12CC[C@@]1(O)[C@H]3Cc4ccc(O)c5c4[C@@]1(CCN3CC1CC1)[C@H]2O5
Value measured: 0.0246

Compound: Oc1ccc2c3c1O[C@H]1[C@]4(CC[C@H]5[C@@H](C2)N(CC2CC2)CC[C@@]351)O[C@@H]1N2[C@H]4O[C@]3(CC[C@H]4[C@H]5Cc6ccc(O)c7c6[C@@]4(CCN5CC4CC4)[C@H]3O7)[C@@H]2O[C@]12CC[C@H]1[C@H]3Cc4ccc(O)c5c4[C@@]1(CCN3CC1CC1)[C@H]2O5
Value measured: 0.0537

Now for a further compound.
**Query** State its Ki for this compound: O=C1CC[C@@]2(O)[C@H]3Cc4ccc(O)c5c4[C@@]2(CCN3CC2CC2)[C@H]1O5 [NALTREXONE]
**Result** 0.0207

---

species on record: Cavia porcellus; experiment: Selectivity ratio of Ki for delta opioid receptor in guinea pig forebrain homogenates to Ki for mu opioid receptor in guinea pig forebrain homogenates; format: tissue-based
Recorded Ratio Ki by entry
Note: the reply should be a number with no unit written.

Smiles code: CN1CC[C@]23c4c5ccc(O)c4O[C@H]2[C@]2(CC[C@@]3(O)[C@H]1C5)O[C@@H]1N3[C@H]2O[C@]2(CC[C@@]4(O)[C@H]5Cc6ccc(O)c7c6[C@@]4(CCN5CC4CC4)[C@H]2O7)[C@@H]3O[C@]12CC[C@@]1(O)[C@H]3Cc4ccc(O)c5c4[C@@]1(CCN3C)[C@H]2O5
Ratio Ki: 12.7
--
Smiles code: Oc1ccc2c3c1O[C@H]1[C@]4(CC[C@@]5(O)[C@@H](C2)N(CC2CC2)CC[C@]315)O[C@@H]1N2[C@H]4O[C@]3(CC[C@@]4(O)[C@H]5Cc6ccc(O)c7c6[C@@]4(CCN5CC4CC4)[C@H]3O7)[C@@H]2O[C@]12CC[C@@]1(O)[C@H]3Cc4ccc(O)c5c4[C@@]1(CCN3CC1CC1)[C@H]2O5
Ratio Ki: 5.5
--
Smiles code: CN1CC[C@]23c4c5ccc(O)c4O[C@H]2[C@]2(CC[C@@]3(O)[C@H]1C5)O[C@@H]1N3[C@H]2O[C@]2(CC[C@@]4(O)[C@H]5Cc6ccc(O)c7c6[C@@]4(CCN5C)[C@H]2O7)[C@@H]3O[C@]12CC[C@@]1(O)[C@H]3Cc4ccc(O)c5c4[C@@]1(CCN3C)[C@H]2O5
Ratio Ki: 36.8
--
Smiles code: CN1CC[C@]23c4c5ccc(O)c4O[C@H]2[C@]2(CC[C@@]3(O)[C@H]1C5)O[C@@H]1N3[C@H]2O[C@]2(CC[C@@]4(O)[C@H]5Cc6ccc(O)c7c6[C@@]4(CCN5CC4CC4)[C@H]2O7)[C@@H]3O[C@]12CC[C@@]1(O)[C@H]3Cc4ccc(O)c5c4[C@@]1(CCN3CC1CC1)[C@H]2O5
Ratio Ki: 6.2

**Query** Output measured Ratio Ki for this item: "Oc1ccc2c3c1O[C@H]1[C@]4(CC[C@H]5[C@@H](C2)N(CC2CC2)CC[C@@]351)O[C@@H]1N2[C@H]4O[C@]3(CC[C@H]4[C@H]5Cc6ccc(O)c7c6[C@@]4(CCN5CC4CC4)[C@H]3O7)[C@@H]2O[C@]12CC[C@H]1[C@H]3Cc4ccc(O)c5c4[C@@]1(CCN3CC1CC1)[C@H]2O5"
**Result** 2.4

---

molecular target: Kappa-type opioid receptor (Cavia porcellus, UniProt P41144)
Sequence (P41144 whole entry): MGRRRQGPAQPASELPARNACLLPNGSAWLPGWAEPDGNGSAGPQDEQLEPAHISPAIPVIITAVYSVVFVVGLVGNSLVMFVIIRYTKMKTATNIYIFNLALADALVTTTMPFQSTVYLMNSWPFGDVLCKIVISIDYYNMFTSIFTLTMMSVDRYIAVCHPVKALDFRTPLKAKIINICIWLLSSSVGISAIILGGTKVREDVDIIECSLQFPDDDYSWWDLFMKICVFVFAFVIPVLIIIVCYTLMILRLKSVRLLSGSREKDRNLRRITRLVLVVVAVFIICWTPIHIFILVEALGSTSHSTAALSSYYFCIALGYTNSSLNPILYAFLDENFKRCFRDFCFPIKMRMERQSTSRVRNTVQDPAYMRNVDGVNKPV
Each entry below carries its recorded pKi.
Remember the convention: pKi equals -log10 of concentration in molar.

Example entries begin here.
Smiles code: Oc1ccc2c3c1O[C@H]1[C@]4(CC[C@@]5(O)[C@@H](C2)N(CC2CC2)CC[C@]315)O[C@@H]1N2[C@H]4O[C@]3(CC[C@@]4(O)[C@H]5Cc6ccc(O)c7c6[C@@]4(CCN5CC4CC4)[C@H]3O7)[C@@H]2O[C@]12CC[C@@]1(O)[C@H]3Cc4ccc(O)c5c4[C@@]1(CCN3CC1CC1)[C@H]2O5
pKi: 7.66
//
Smiles code: CN1CC[C@]23c4c5ccc(O)c4O[C@H]2[C@]2(CC[C@@]3(O)[C@H]1C5)O[C@@H]1N3[C@H]2O[C@]2(CC[C@@]4(O)[C@H]5Cc6ccc(O)c7c6[C@@]4(CCN5C)[C@H]2O7)[C@@H]3O[C@]12CC[C@@]1(O)[C@H]3Cc4ccc(O)c5c4[C@@]1(CCN3C)[C@H]2O5
pKi: 7.79
//
Smiles code: CN1CC[C@]23c4c5ccc(O)c4O[C@H]2[C@]2(CC[C@@]3(O)[C@H]1C5)O[C@@H]1N3[C@H]2O[C@]2(CC[C@@]4(O)[C@H]5Cc6ccc(O)c7c6[C@@]4(CCN5CC4CC4)[C@H]2O7)[C@@H]3O[C@]12CC[C@@]1(O)[C@H]3Cc4ccc(O)c5c4[C@@]1(CCN3C)[C@H]2O5
pKi: 7.96
//
Smiles code: CN1CC[C@]23c4c5ccc(O)c4O[C@H]2[C@]2(CC[C@@]3(O)[C@H]1C5)O[C@@H]1N3[C@H]2O[C@]2(CC[C@@]4(O)[C@H]5Cc6ccc(O)c7c6[C@@]4(CCN5CC4CC4)[C@H]2O7)[C@@H]3O[C@]12CC[C@@]1(O)[C@H]3Cc4ccc(O)c5c4[C@@]1(CCN3CC1CC1)[C@H]2O5
pKi: 8.00

Here's the next entry for you.
**Query** Report value: pKi, system: Kappa-type opioid receptor (Cavia porcellus, UniProt P41144), compound: "Oc1ccc2c3c1O[C@H]1[C@]4(CC[C@H]5[C@@H](C2)N(CC2CC2)CC[C@@]351)O[C@@H]1N2[C@H]4O[C@]3(CC[C@H]4[C@H]5Cc6ccc(O)c7c6[C@@]4(CCN5CC4CC4)[C@H]3O7)[C@@H]2O[C@]12CC[C@H]1[C@H]3Cc4ccc(O)c5c4[C@@]1(CCN3CC1CC1)[C@H]2O5"
**Result** 7.36

---

target: Mu-type opioid receptor (Cavia porcellus, UniProt P97266)
Sequence (P97266 whole entry): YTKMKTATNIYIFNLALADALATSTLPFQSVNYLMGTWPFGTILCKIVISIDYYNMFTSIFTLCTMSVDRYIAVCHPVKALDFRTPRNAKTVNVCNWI
Reported property: Ki (nM)
Enter your answer as a number in nM; do not include the unit.

**Query** Please tell me the measured Ki for "CN1CC[C@]23c4c5ccc(O)c4O[C@H]2[C@]2(CC[C@@]3(O)[C@H]1C5)O[C@@H]1N3[C@H]2O[C@]2(CC[C@@]4(O)[C@H]5Cc6ccc(O)c7c6[C@@]4(CCN5CC4CC4)[C@H]2O7)[C@@H]3O[C@]12CC[C@@]1(O)[C@H]3Cc4ccc(O)c5c4[C@@]1(CCN3CC1CC1)[C@H]2O5" ; system: Mu-type opioid receptor (Cavia porcellus, UniProt P97266).
**Result** 3.98

**Query** # return Ki of "Oc1ccc2c3c1O[C@H]1[C@]4(CC[C@H]5[C@@H](C2)N(CC2CC2)CC[C@@]351)O[C@@H]1N2[C@H]4O[C@]3(CC[C@H]4[C@H]5Cc6ccc(O)c7c6[C@@]4(CCN5CC4CC4)[C@H]3O7)[C@@H]2O[C@]12CC[C@H]1[C@H]3Cc4ccc(O)c5c4[C@@]1(CCN3CC1CC1)[C@H]2O5" (system: Mu-type opioid receptor (Cavia porcellus, UniProt P97266))
**Result** 22.3

**Query** # return Ki of "CN1CC[C@]23c4c5ccc(O)c4O[C@H]2[C@]2(CC[C@@]3(O)[C@H]1C5)O[C@@H]1N3[C@H]2O[C@]2(CC[C@@]4(O)[C@H]5Cc6ccc(O)c7c6[C@@]4(CCN5C)[C@H]2O7)[C@@H]3O[C@]12CC[C@@]1(O)[C@H]3Cc4ccc(O)c5c4[C@@]1(CCN3C)[C@H]2O5" (system: Mu-type opioid receptor (Cavia porcellus, UniProt P97266))
**Result** 1.05
